pIC50: −log10 of the molar value.
Record type: pIC50 measurement. Applies to: UniProt:Q86V86

Recorded pIC50, per entry:
| smiles.record | pIC50 |
| --- | --- |
| COc1ccc(-c2cc3nc(C(=O)Nc4cnccc4N4C[C@@H](N)[C@H](O)[C@@H](C)C4)ccc3o2)cn1 | ≥ 8.00 |
| C[C@@H]1C[C@H](N)CN(c2ccncc2NC(=O)c2ccc3oc(-c4ccc(N5CCOCC5)nc4)cc3n2)C1 | ≥ 8.00 |
| C[C@@H]1C[C@H](N)CN(c2ccncc2NC(=O)c2ccc3sc(-c4ccccc4)cc3n2)C1 | ≥ 8.00 |
| CCc1csc2ccc(C(=O)Nc3cnccc3N3CCC[C@H](N)C3)nc12 | ≥ 8.00 |
| COc1ccc(-c2cc3nc(C(=O)Nc4cnccc4N4C[C@H](C)C[C@H](N)C4)ccc3o2)cn1 | ≥ 8.00 |
| CC(C)c1coc2ccc(C(=O)Nc3cnccc3N3C[C@H](C)C[C@H](N)C3)nc12 | ≥ 8.00 |

Respectfully, I request pIC50 for each entry included below.
1. C[C@H]1CN(c2ccncc2NC(=O)c2ccc3sc(C4CC4)nc3n2)C[C@@H](N)[C@@H]1O
2. C[C@@H]1C[C@H](N)CN(c2ccncc2NC(=O)c2ccc3sc(C4CC4)nc3n2)C1

1: ≥ 8.00; 2: ≥ 8.00

Respectfully, I request pIC50 for each entry included below.
1. C[C@H]1CN(c2ccncc2NC(=O)c2ccc3occ(C4CC4)c3n2)C[C@@H](N)[C@@H]1O
2. C[C@@H]1C[C@H](N)C[C@H](c2ccncc2NC(=O)c2ccn3ncc(-c4c(F)cccc4F)c3n2)C1
3. C[C@H]1CN(c2ccncc2NC(=O)c2ccc3sc(-c4c(F)cccc4F)cc3n2)C[C@@H](N)[C@@H]1O
4. CC(C)c1coc2ccc(C(=O)Nc3cnccc3[C@@H]3C[C@H](C)C[C@H](N)C3)nc12
5. COc1cc(F)c(-c2cc3nc(C(=O)Nc4cnccc4N4C[C@H](C)C[C@H](N)C4)ccc3s2)c(F)c1

1. ≥ 8.00
2. ≥ 8.00
3. ≥ 8.00
4. ≥ 8.00
5. ≥ 8.00

Respectfully, I request pIC50 for each entry included below.
1. COc1ccc(F)c(-c2csc3ccc(C(=O)Nc4cnccc4N4C[C@H](C)C[C@H](N)C4)nc23)c1F
2. C[C@@H]1C[C@H](N)CN(c2ccncc2NC(=O)c2ccc3sc(-c4cnn(C)c4)cc3n2)C1

["7.30 to 8.00", "≥ 8.00"]

Respectfully, I request pIC50 for each entry included below.
1. C[C@H]1CN(c2ccncc2NC(=O)c2ccc3occ(C4CCN(C)CC4)c3n2)C[C@@H](N)[C@@H]1O
2. Cc1cc2nc(C(=O)Nc3cnccc3N3C[C@H](C)C[C@H](N)C3)ccc2s1

1: < 7.40; 2: ≥ 8.00

* * *

# target.or.system: Pim-2 (Homo sapiens (Human), UniProt Q9P1W9)
# Sequence (Q9P1W9 whole entry): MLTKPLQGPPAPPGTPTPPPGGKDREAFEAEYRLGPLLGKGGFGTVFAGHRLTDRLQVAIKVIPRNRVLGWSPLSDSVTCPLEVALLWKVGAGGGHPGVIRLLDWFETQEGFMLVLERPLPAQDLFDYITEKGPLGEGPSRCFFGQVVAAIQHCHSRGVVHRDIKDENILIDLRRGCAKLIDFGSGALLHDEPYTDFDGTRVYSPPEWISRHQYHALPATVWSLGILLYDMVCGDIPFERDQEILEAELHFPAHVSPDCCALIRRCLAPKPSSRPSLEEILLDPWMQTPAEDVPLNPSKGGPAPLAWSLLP
# protocol.summary: Pim-2 kinase assay (TR-FRET, Fluorescein-labeled CREBtide peptide substrate)
# Type: biochemical
# assay.setup: 1 mM ATP; read-out: Pim2 IC50
pIC50: −log10 of the molar value.
Exercise: state measured pIC50 for each of the molecules provided.

Recorded pIC50, per entry:
| molecule | property.measured | measurement |
| --- | --- | --- |
| CCCc1cc2nc(C(=O)Nc3cnccc3N3C[C@@H](N)[C@H](O)[C@@H](C)C3)ccc2s1 [Example 38] | pIC50 | 6.00 to 7.00 |
| COc1cncc(-c2coc3ccc(C(=O)Nc4cnccc4N4C[C@H](C)C[C@H](N)C4)nc23)c1 [Example 32] | pIC50 | 5.00 to 6.00 |
| C[C@@H]1C[C@H](N)CN(c2ccncc2NC(=O)c2ccc3sc(-c4cnn(C)c4)cc3n2)C1 [Example 60] | pIC50 | ≥ 7.00 |
| C[C@@H]1C[C@H](N)CN(c2ccncc2NC(=O)c2ccc3sc(C4CC4)cc3n2)C1 [Example 59] | pIC50 | ≥ 7.00 |
| C[C@@H]1C[C@H](N)CN(c2ccncc2NC(=O)c2ccc3occ(-c4cnoc4)c3n2)C1 [Example 28] | pIC50 | < 5.70 |

Respectfully, I request pIC50 for each entry included below.
1. C[C@@H]1C[C@H](N)CN(c2ccncc2NC(=O)c2ccc3occ(-c4ccccc4F)c3n2)C1 [Example 21]
2. C[C@@H]1C[C@H](N)C[C@H](c2ccncc2NC(=O)c2ccn3ncc(-c4c(F)cccc4F)c3n2)C1 [Example 83]
3. CC(C)c1cc2nc(C(=O)Nc3cnccc3N3C[C@H](C)C[C@H](N)C3)ccc2s1 [Example 51]
4. N[C@H]1CCCN(c2ccncc2NC(=O)c2ccc3occ(-c4c(F)cccc4F)c3n2)C1 [Example 37]
5. C[C@H]1CN(c2ccncc2NC(=O)c2ccc3occ(-c4ccccc4F)c3n2)C[C@@H](N)[C@@H]1O [Example 12]
6. Cc1cc2nc(C(=O)Nc3cnccc3N3C[C@@H](N)[C@H](O)[C@@H](C)C3)ccc2s1 [Example 49]

["≥ 7.00", "6.00 to 7.00", "≥ 7.00", "≥ 7.00", "6.00 to 7.00", "6.00 to 7.00"]

* * *

Record type: pIC50 measurement. Applies to: Pim-3 (Homo sapiens (Human), UniProt Q86V86)
pIC50: −log10 of the molar value.

Recorded pIC50, per entry:
| smiles.record | target.or.system | pIC50 |
| --- | --- | --- |
| C[C@H]1CN(c2ccncc2NC(=O)c2ccc3occ(-c4ccccc4F)c3n2)C[C@@H](N)[C@@H]1O | Pim-3 (Homo sapiens (Human), UniProt Q86V86) | ≥ 8.00 |
| COc1ccc(F)c(-c2coc3ccc(C(=O)Nc4cnccc4N4C[C@H](C)C[C@H](N)C4)nc23)c1F | Pim-3 (Homo sapiens (Human), UniProt Q86V86) | ≥ 8.00 |
| CCCc1cc2nc(C(=O)Nc3cnccc3N3C[C@@H](N)[C@H](O)[C@@H](C)C3)ccc2s1 | Pim-3 (Homo sapiens (Human), UniProt Q86V86) | ≥ 8.00 |

Respectfully, I request pIC50 for each entry included below.
1. C[C@H]1CN(c2ccncc2NC(=O)c2ccc3oc(-c4c(F)cccc4F)cc3n2)C[C@@H](N)[C@@H]1O
2. C[C@@H]1C[C@H](N)CN(c2ccncc2NC(=O)c2ccc3occ(C4CCOCC4)c3n2)C1

1. 7.30 to 8.00
2. ≥ 8.00

* * *

Record type: IC50 measurement. Applies to: Pim-2 (Homo sapiens (Human), UniProt Q9P1W9)

Recorded IC50, per entry:
| smiles.record | target.or.system | measurement |
| --- | --- | --- |
| CC(C)c1cc2nc(C(=O)Nc3cnccc3N3C[C@@H](N)[C@H](O)[C@@H](C)C3)ccc2s1 | Pim-2 (Homo sapiens (Human), UniProt Q9P1W9) | ≤ 100 nM |
| C[C@H]1CN(c2ccncc2NC(=O)c2ccc3cc([C@H]4C[C@@H]4c4ccccc4)oc3n2)C[C@@H](N)[C@@H]1O | Pim-2 (Homo sapiens (Human), UniProt Q9P1W9) | 1000 to 10000 nM |
| C[C@H]1CN(c2ccncc2NC(=O)c2ccc3sc(Cc4ccccc4)cc3n2)C[C@@H](N)[C@@H]1O | Pim-2 (Homo sapiens (Human), UniProt Q9P1W9) | 100 to 1000 nM |
| C[C@@H]1C[C@H](N)CN(c2ccncc2NC(=O)c2ccc3occ(-c4cc(F)nc(F)c4)c3n2)C1 | Pim-2 (Homo sapiens (Human), UniProt Q9P1W9) | > 2000 nM |
| C[C@H]1CN(c2ccncc2NC(=O)c2ccc3sc(-c4ccccc4F)cc3n2)C[C@@H](N)[C@@H]1O | Pim-2 (Homo sapiens (Human), UniProt Q9P1W9) | 100 to 1000 nM |

Respectfully, I request IC50 for each entry included below.
1. CCc1csc2ccc(C(=O)Nc3cnccc3N3CCC[C@H](N)C3)nc12
2. CCc1coc2ccc(C(=O)Nc3cnccc3N3C[C@H](C)C[C@H](N)C3)nc12
3. C[C@@H]1C[C@H](N)CN(c2ccncc2NC(=O)c2ccc3cc(C4CC4)oc3n2)C1
4. C[C@H]1CN(c2ccncc2NC(=O)c2ccc3cc(C4CC4)oc3n2)C[C@@H](N)[C@@H]1O
5. COc1cc(F)c(-c2cc3nc(C(=O)Nc4cnccc4N4C[C@@H](N)[C@H](O)[C@@H](C)C4)ccc3s2)c(F)c1
6. COc1ccc(-c2cc3nc(C(=O)Nc4cnccc4N4C[C@H](C)C[C@H](N)C4)ccc3s2)cn1
7. CCc1coc2ccc(C(=O)Nc3cnccc3N3C[C@@H](N)[C@H](O)[C@@H](C)C3)nc12
8. C[C@@H]1C[C@H](N)CN(c2ccncc2NC(=O)c2ccc3sc(-c4c(F)cccc4F)cc3n2)C1

100 to 1000 nM
≤ 100 nM
≤ 100 nM
≤ 100 nM
100 to 1000 nM
100 to 1000 nM
≤ 100 nM
100 to 1000 nM
